Protocol Notes: folding stability dG unfold from trypsin proteolysis; higher = more stable
Class boundaries, taken from values of folding stability dG unfold, are as follows: bottom end = under 0.5 kcal/mol, midrange = from 0.5 kcal/mol up to 2 kcal/mol, top end = 2 kcal/mol and over

[[record]]
query_sequence = "WKIVEITDIEPDPDGWLEIKITIEPPEPGDPIKIMIFHPNQFHEFEIDPESPEIEIRIPPGFDNLHIFIYVS [r1_428_TrROS]"
cat = "top end"

[[record]]
query_sequence = "SAGGAPTVELKTETIETEDGTYLVVEAKVPTPDVTLEIKLPHGGETEVVYDPETGTATVVFRLPPDWLSAGG [r13_380_TrMRF]"
cat = "midrange"

[[record]]
query_sequence = "SAGGSAGGSASVTVSPTPDDTWRVEVTETRYFFDPDGRPIGPVTITSSRVVSSEEEAAALLSAGGSAGGSAG [r3_232_JUSTAS]"
cat = "midrange"

[[record]]
query_sequence = "SFSISTETKVVPQDGRLLIEYEFTVPNAPPGDTAALTLSVSHPSGASTSTSQTADPAGTYTAKFVVDIPLTS [r1_161_JUSTAS]"
cat = "bottom end"

[[record]]
query_sequence = "SAGGSAGGNLTLPPDNIKRIWHVGDGHWLIKMDDNVLMINPGNGKIQTVKKEDADKLPPGDPFFSAGGSAGG [r6_890_TrROS]"
cat = "bottom end"

[[record]]
query_sequence = "SAGGSAGMVLVRTPDGEVLLLPFTSPEEAEEALERLTGGRLVSVRLEGTPGDRLLLVAEVERPPGGSAGGSA [r15_447_TrMRF]"
cat = "midrange"

[[record]]
query_sequence = "SAGGSAGGSKITSIEEKDGFVRITIEVDGKTETKTIPKENLPPNITFPPGAKVKIEKVSKEDLSAGGSAGGS [r12_1005_TrROS_Hall]"
cat = "bottom end"

[[record]]
query_sequence = "SAGGSAGGSAGGEPIPTKTIEVDEATGTVTVTVTFPPPNETVTVTRPAPPDVSLEEVLASAGGSAGGSAGGS [r10_676_JUSTAS]"
cat = "midrange"

[[record]]
query_sequence = "NRYYRITIRNPDGMPIELFVRRSPNGEYMVRVKINMPNKKPKTIWFPFKSPEDILEEIRKHLPWDIEIEPWS [r1_137_TrROS]"
cat = "top end"

[[record]]
query_sequence = "SAGGSAGGSAGGWIMVPIEIKVDLKWGPNGQHEIETVPILIIIRIPPPPVPEEQAEKNNGSAGGSAGGSAGG [r11_318_TrROS]"
cat = "top end"

[[record]]
query_sequence = "SAGGSFSVDVPPDATVEVEEKVKRPDGSEVHLKITITRLPTSGKVLVTVEDNPPEKGSTTKEEIVPLESAGG [r13_934_JUSTAS]"
cat = "bottom end"

[[record]]
query_sequence = "SSMSTPSSSTLTVELPDREVTASATTTTLPDGTTTTTTTFPDGSTITYDPATGTTTIYDPATGAPLATTGSA [r9_970_JUSTAS]"
cat = "midrange"

[[record]]
query_sequence = "SAGGKKVKIKVTIVIKVEPGESVEEIAKKLAEELGLKVEVKVEVVKRKDGSLYVVIEVEIELPEELKPSAGG [r13_590_TrROS_Hall]"
cat = "top end"

[[record]]
query_sequence = "SMMYLVKIKVRNKETGELVEEIELVVESEEEAEKIAEELAEELGLEVEVEVKRISPEELEDPEILKELLESA [r9_864_TrROS_Hall]"
cat = "top end"

